PROTOCOL NOTES: Plasma pharmacokinetics and brain distribution after single IV, IP and oral administration
Assay type: in vivo
MEASUREMENT SETUP: male, C57BL/6, mouse, brain, ip, 10 mg/kg, IP 10 mg/kg, 3 hr; read-out: Brain-to-plasma ratio
Structures can show the parent of a compound that is named as a salt.

MOLECULE | Kp at 3 h
[2H]C1([2H])Oc2ccc(Nc3nc(-c4c(C)nc5ccccn45)cs3)cc2O1 [Compound 17, hydrochloride] | 1.1
Cc1nc2ccccn2c1-c1csc(Nc2ccc3c(c2)OC(F)(F)O3)n1 [Compound 16, hydrochloride] | 4.34
[2H]C([2H])([2H])Oc1ccc(Nc2nc(-c3c(C)nc4ccccn34)cs2)cc1 [Compound 15, hydrochloride] | 0.36

###

PROTOCOL NOTES: Plasma pharmacokinetics and brain distribution after single IV, IP and oral administration
Assay type: in vivo
MEASUREMENT SETUP: male, C57BL/6, mouse, in vivo, iv, 2 mg/kg, Brain concentration, individual animal
Structures can show the parent of a compound that is named as a salt.
The reader will find reported concentration at 24 h values listed item by item below.

COMPOUND | concentration at 24 h
[2H]C1([2H])Oc2ccc(Nc3nc(-c4c(C)nc5ccccn45)cs3)cc2O1 [Compound 17, hydrochloride] | 0 ng/g
[2H]C([2H])([2H])Oc1ccc(Nc2nc(-c3c(C)nc4ccccn34)cs2)cc1 [Compound 15, hydrochloride] | 0 ng/g

###

PROTOCOL NOTES: in vitro
MEASUREMENT SETUP: mouse, microsomes, 1 h, 1 μM, pH 7.4
Where a name gives a salt, the structure may show the parent alone.
% Remaining at 60 min (−NADPH): recorded values
REPORTED ENDPOINT: % Remaining at 60 min (−NADPH) (%)

COMPOUND | REPORTED ENDPOINT | VALUE
[2H]C1([2H])Oc2ccc(Nc3nc(-c4c(C)nc5ccccn45)cs3)cc2O1 [Compound 17, hydrochloride] | % Remaining at 60 min (−NADPH) | 81
COc1c(F)cc(Nc2nc(-c3c(C)nc4ccccn34)cs2)cc1F [Compound 14, hydrochloride] | % Remaining at 60 min (−NADPH) | 33
[2H]C([2H])([2H])Oc1ccc(Nc2nc(-c3c(C)nc4ccccn34)cs2)cc1 [Compound 15, hydrochloride] | % Remaining at 60 min (−NADPH) | 93
Cc1nc2ccccn2c1-c1csc(Nc2ccc3c(c2)OC(F)(F)O3)n1 [Compound 16, hydrochloride] | % Remaining at 60 min (−NADPH) | 62

###

PROTOCOL NOTES: Plasma pharmacokinetics and brain distribution after single IV, IP and oral administration
Type: in vivo
MEASUREMENT SETUP: male, C57BL/6, mouse, in vivo, ip, 10 mg/kg, Brain concentration, individual animal
Procedure: The objective of this study was to investigate the plasma pharmacokinetics and brain distribution of Compound (14 in male C57BL/6 mice following a single intravenous, intraperitoneal and oral administration. A group of sixty-three male mice were divided into three groups (Group 1: 2 mg/kg/IV; Group 2: 10 mg/kg/IP and Group 3: 10 mg/kg/PO) with each group comprising of twenty-one mice. […]
Structures can show the parent of a compound that is named as a salt.
REPORTED ENDPOINT: concentration at 3 h (ng/g)

COMPOUND | REPORTED ENDPOINT | VALUE
[2H]C([2H])([2H])Oc1ccc(Nc2nc(-c3c(C)nc4ccccn34)cs2)cc1 [Compound 15, hydrochloride] | concentration at 3 h | 48.4

Where do the numbers come from? From patent US12215106B2.
